Here's a batch of molecules along with measured Kd for Mitogen-activated protein kinase kinase kinase kinase 5 (Homo sapiens).

MOLECULE_SMILES: Oc1ccc(-c2nc(-c3ccncc3)c(-c3ccc(F)cc3)[nH]2)cc1
Kd: > 10 µM
//
MOLECULE_SMILES: NC(=O)c1ccc(-c2nc(-c3ccc4c(c3)OCO4)c(-c3ccccn3)[nH]2)cc1
Kd: > 10 µM
//
MOLECULE_SMILES: COCC(=O)NC/C=C/c1ccc2ncnc(Nc3ccc(Oc4ccc(C)nc4)c(C)c3)c2c1
Kd: > 10 µM
//
MOLECULE_SMILES: CCOc1cc2ncc(C#N)c(Nc3ccc(F)c(Cl)c3)c2cc1NC(=O)/C=C/CN(C)C
Kd: 0.01 µM
